tested on: HEK-293T; assay: Multiplex assay against HEK293T; format: toxicity, cell-based; conditions: human, 12 h, 1 µM, compound concentration 1 uM, replicate 1
QUANTITY_MEASURED: Population Hoechst High Intensity Objects (%)

[[record]]
smiles_data = "Cl.Oc1ccc2c3c1O[C@H]1c4[nH]c5c(c4C[C@@]4(O)[C@@H](C2)N(CC2CC2)CC[C@]314)C[C@@]1(O)[C@H]2Cc3ccc(O)c4c3[C@@]1(CCN2CC1CC1)[C@H]5O4"
recorded_value = 13

[[record]]
smiles_data = "S=C(NCCCc1c[nH]cn1)NCCCN(Cc1ccc(Cl)c(Cl)c1)c1ccc(Br)cn1"
recorded_value = 11

[[record]]
smiles_data = "O=C(Cc1ccc(-c2ccc(OCCN3CCOCC3)cc2)cn1)NCc1ccccc1"
recorded_value = 12

[[record]]
smiles_data = "COc1cccc2cc(-c3nc([C@H]4CC[C@H](C(=O)O)CC4)n4ncnc(N)c34)[nH]c12"
recorded_value = 16

[[record]]
smiles_data = "CN[C@@H]1C[C@H]2O[C@@](C)([C@@H]1OC)n1c3ccccc3c3c4c(c5c6ccccc6n2c5c31)C(=O)NC4"
recorded_value = 15

[[record]]
smiles_data = "CNc1cc(Oc2cc(C(=O)Nc3cc(N4CCN(C)CC4)cc(C(F)(F)F)c3)ccc2C)ncn1"
recorded_value = 20

[[record]]
smiles_data = "CNC(=O)c1ccc(Nc2nc(OC3CCCC3)c3c(-c4ccc5nc(C)oc5c4)c[nH]c3n2)c(OC)c1"
recorded_value = 22

[[record]]
smiles_data = "CCCS(=O)(=O)Nc1ccc(F)c(C(=O)c2c[nH]c3ncc(Cl)cc23)c1F"
recorded_value = 11

[[record]]
smiles_data = "Cl.O=C(c1ccc(Nc2nccc(-c3cc4ccccc4s3)n2)cc1)N1CCC(N2CCCC2)CC1"
recorded_value = 8

[[record]]
smiles_data = "NC(=O)c1cccc(-c2cc(Nc3ccc(OC(F)(F)F)cc3)ncn2)c1"
recorded_value = 7

[[record]]
smiles_data = "O=C(Nc1ccc(-n2nc(-c3cccnc3)cc2C(F)(F)F)cn1)c1ccc(-c2ccccc2)c(F)c1"
recorded_value = 21

[[record]]
smiles_data = "Cc1ccc2nc(NCCN)c3ncc(C)n3c2c1.O=C(O)C(F)(F)F.O=C(O)C(F)(F)F"
recorded_value = 13

[[record]]
smiles_data = "CCc1cccc(CC)c1NC(=O)c1nn(C)c2c1CCc1cnc(Nc3ccc(C(=O)NC4CCN(C)CC4)cc3OC(F)(F)F)nc1-2"
recorded_value = 11

[[record]]
smiles_data = "O=C1N/C(=N/c2ccccc2F)S/C1=C\\c1ccc(C(=O)O)cc1"
recorded_value = 14

[[record]]
smiles_data = "C=CCn1c(=O)c2cnc(Nc3ccc(N4CCN(C)CC4)cc3)nc2n1-c1cccc(C(C)(C)O)n1"
recorded_value = 14

[[record]]
smiles_data = "CCOc1cc2ncc(C#N)c(Nc3ccc(OCc4ccccn4)c(Cl)c3)c2cc1NC(=O)/C=C/CN(C)C"
recorded_value = 20

